SYSTEM NAME: Casein kinase I isoform epsilon (Homo sapiens)
Sequence (P49674 whole entry, canonical isoform): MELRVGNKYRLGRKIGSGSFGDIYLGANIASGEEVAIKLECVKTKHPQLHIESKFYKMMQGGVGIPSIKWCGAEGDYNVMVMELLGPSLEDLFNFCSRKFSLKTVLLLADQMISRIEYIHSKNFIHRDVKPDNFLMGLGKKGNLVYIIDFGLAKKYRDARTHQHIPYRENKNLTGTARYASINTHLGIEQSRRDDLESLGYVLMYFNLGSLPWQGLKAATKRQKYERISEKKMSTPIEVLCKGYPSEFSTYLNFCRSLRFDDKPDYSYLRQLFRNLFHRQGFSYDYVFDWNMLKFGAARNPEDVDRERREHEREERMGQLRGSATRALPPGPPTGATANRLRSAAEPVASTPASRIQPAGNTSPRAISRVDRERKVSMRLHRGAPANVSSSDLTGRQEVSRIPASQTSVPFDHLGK
ASSAY NOTES: Kinase Assay: The kinase assay was performed in V-bottom 384-well plates. The final assay volume was 30 μl prepared from 15 μl additions of enzyme, substrates (fluoresceinated peptide FL-AHA-KRRRAL-PSER-VASLPGL-OH and ATP) and test compounds in assay buffer (20 mM HEPES pH 7.4, 30 mM MgCl2, 0.015% Brij35 and 4 mM DTT). The reaction was incubated at room temperature for 22 hours and terminated by adding 45 μl of 35 mM EDTA to each sample. The reaction mixture was analyzed on the Caliper LABCHIP®3000 (Caliper, Hopkinton, Mass.) by electrophoretic separation of the unphosphorylated substrate and phosphorylated product. […] The final concentration of reagents in the assay were 200 pM CK1ε or CK1δ, 50 μM ATP, 1.5 μM FL-AHA-KRRRAL-PSER-VASLPGL-OH, and 1.6% DMSO. Dose response curves were generated to determine the concentration required to inhibit 50% of the kinase activity (IC50). Compounds were dissolved at 10 mM in dimethylsulfoxide (DMSO) and evaluated at eleven concentrations. IC50 values were derived by non-linear regression analysis.
pIC50: −log10 of the molar value.
READOUT: pIC50

Look over these answered cases.
{"columns": ["QUERY SMILES", "SYSTEM NAME", "READOUT", "OBSERVED"],
 "data": [
  ["NC(=O)c1c(-c2cccc(F)c2)nn2c1CN(C(=O)Nc1cc(Cl)cc(Cl)c1)CC2", "Casein kinase I isoform epsilon (Homo sapiens)", "pIC50", "> 8.00"],
  ["Cc1nc(-c2ccc(NC(=O)N3CCn4nc(-c5ccc(F)c(Cl)c5)c(C(N)=O)c4C3)cc2)cs1", "Casein kinase I isoform epsilon (Homo sapiens)", "pIC50", "> 8.00"],
  ["N#Cc1ccc(NC(=O)N2CCn3nc(-c4cccc(Cl)c4)c(C(N)=O)c3C2)cc1N1CCOCC1", "Casein kinase I isoform epsilon (Homo sapiens)", "pIC50", "> 8.00"]
]}

Consider the additional compound presented here.
Item "NC(=O)c1c(-c2cc(F)cc(Cl)c2)nn2c1CN(C(=O)Nc1cc(F)cc(C(F)(F)F)c1)CC2" has what recorded pIC50?
> 8.00
